# ASSAYED_TARGET: P3Z chimeric PD-1 receptor (human)
# Sequence (chain, as listed by the source mutant limits assumed): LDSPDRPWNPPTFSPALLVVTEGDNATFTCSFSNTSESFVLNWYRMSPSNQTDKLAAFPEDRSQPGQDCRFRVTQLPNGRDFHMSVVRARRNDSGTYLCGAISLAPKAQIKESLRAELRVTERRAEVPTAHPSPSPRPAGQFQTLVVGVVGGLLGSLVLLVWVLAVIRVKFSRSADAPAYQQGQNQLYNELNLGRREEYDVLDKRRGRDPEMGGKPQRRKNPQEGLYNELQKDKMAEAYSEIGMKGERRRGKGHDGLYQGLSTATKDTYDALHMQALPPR
# ASSAY_TEXT: cell-based or functional assay
QUANTITY: IL-2 release in HuT78/P3Z, EC50

## Input Kindly indicate its recorded IL-2 release in HuT78/P3Z, EC50. Item: Fab hu317-2_K71V / hu317-1_Vκ (Fab, V domains shown) VH: QVQLQESGPGLVKPSETLSLTCTVSGFSLTSYGVHWIRQPPGKGLEWLGVIWAGGSTNYNPSLKSRLTISVDNSKSQVSLKMSSVTAADTAVYYCARAYGNYWYIDVWGQGTTVTVSS VL: DIVMTQSPDSLAVSLGERATINCKASQSVSNDVAWYQQKPGQPPKLLINYAFHRFTGVPDRFSGSGYGTDFTLTISSLQAEDVAVYYCHQAYSSPYTFGGGTKLEIK
## Output 0.48 µg/mL
